- Tested on: wheat
- assay.remarks: Test B postemergence herbicide test
- Assay type: in vivo, Triticum aestivum
- Design: key: 0 = no effect, 100 = complete control
- condition.notes: 125 g ai/ha; visual rating, scale 0 (no effect) to 100 (complete control); postemergence
Wheat plant response rating values by entry
Answer with a bare number; do not write a unit.

**Query** Request the reported Wheat plant response rating associated with CCOC(=O)c1ccc(F)c(NC(=O)C2CN(C(C)(C)C)N=C2CC)c1 (racemic) [Compound 335]
**Result** 10

**Query** Request the reported Wheat plant response rating associated with CCn1nc(C(C)(C)C)cc1C(=O)Nc1cc(C(=S)N(C)C)ccc1F [Compound 294]
**Result** 30

**Query** Request the reported Wheat plant response rating associated with CCN(C)C(=O)c1ccc(F)c(NC(=O)C2CC(C(C)(C)C)=NN2CC)c1 (racemic) [Compound 307]
**Result** 0

**Query** Request the reported Wheat plant response rating associated with CCOC(=O)c1cccc(NC(=O)c2cc(C(C)(C)C)nn2C)n1 [Compound 313]
**Result** 0

Further cases:
**Query** Request the reported Wheat plant response rating associated with CCNC(=O)c1cccc(NC(=O)c2nn(C(C)(C)C)nc2C)c1 [Compound 392]
**Result** 0

**Query** Request the reported Wheat plant response rating associated with CCNC(=O)c1ccc(F)c(NC(=O)c2c3c(nn2CC)C(C)(C)CC3)c1 [Compound 353]
**Result** 0

**Query** Request the reported Wheat plant response rating associated with CCn1nc(C2(C)CC2)cc1C(=O)Nc1cccc(C(=O)N(C)C)c1 [Compound 303]
**Result** 10

**Query** Request the reported Wheat plant response rating associated with CCC1=NN(C(C)(C)C)CC1C(=O)Nc1cc(C(=O)N(C)C)ccc1F (racemic) [Compound 343]
**Result** 0

**Query** Request the reported Wheat plant response rating associated with C#CCOC(=O)c1cccc(NC(=O)c2cc(C(C)(C)C)nn2C)n1 [Compound 317]
**Result** 0

**Query** Request the reported Wheat plant response rating associated with Cc1nn(C(C)(C)C)nc1C(=O)Nc1cccc(C(=O)N2CC=CC2)c1 [Compound 393]
**Result** 0

**Query** Request the reported Wheat plant response rating associated with CCc1nn(C2CCCC2)nc1C(=O)Nc1cccc(C(=O)N2CC=CC2)c1 [Compound 354]
**Result** 0

**Query** Request the reported Wheat plant response rating associated with CCNC(=O)c1ccc(F)c(NC(=O)c2nn(C(C)(C)C)nc2C)c1 [Compound 377]
**Result** 0

**Query** Request the reported Wheat plant response rating associated with CCN(C)C(=O)c1ccc(F)c(NC(=O)c2nn(C(C)C)nc2C)c1 [Compound 403]
**Result** 0

**Query** Request the reported Wheat plant response rating associated with CCc1nn(C(C)(C)C)nc1C(=O)Nc1cccc(C(=S)N(C)C)c1 [Compound 395]
**Result** 20

**Query** Request the reported Wheat plant response rating associated with CCNC(=O)c1ccc(F)c(NC(=O)c2nn(C(C)(C)CC)nc2CC)c1 [Compound 370]
**Result** 0

**Query** Request the reported Wheat plant response rating associated with CCn1nc(C(C)(C)C)cc1C(=O)Nc1cc(OC)ccc1F [Compound 347]
**Result** 0
